Source: the supplement of paper PMC10567573

B1: APBB1IP (parent)
chain: SQVSMWDQRWQDHQPLLPITDVP

Variants of: B1
EXPERIMENT SUMMARY: protein stability index of a GFP-peptide fusion (GPS, HEK-293T) (PSI 1-6); higher = more stable;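 further: lentivirally expressed fusions sorted by FACS into six bins by GFP to DsRed ratio, PSI derived from sequencing read proportions per bin multiplied by bin number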
REPORTED CONDITIONS: c terminus: native

- MUTATION LIST: "W10V"
  protein stability index: 2.17
- MUTATION LIST: "S1D"
  protein stability index: 2.25
- MUTATION LIST: "Q8M"
  protein stability index: 1.39
- MUTATION LIST: "R9W"
  protein stability index: 1.93
- MUTATION LIST: "Q11D"
  protein stability index: 2.38
- MUTATION LIST: "Q11C"
  protein stability index: 1.92
- MUTATION LIST: "I19H"
  protein stability index: 3.78
- MUTATION LIST: "Q2Y"
  protein stability index: 1.89
- MUTATION LIST: "W6E"
  protein stability index: 4.03
- MUTATION LIST: "P23T"
  protein stability index: 2.01
- MUTATION LIST: "H13K"
  protein stability index: 2.76
- MUTATION LIST: "P15T"
  protein stability index: 1.93
- MUTATION LIST: "M5G"
  protein stability index: 2.37
- MUTATION LIST: "H13E"
  protein stability index: 3.47
- MUTATION LIST: "L16K"
  protein stability index: 3.08
- MUTATION LIST: "S4T"
  protein stability index: 2.23
- MUTATION LIST: "P23H"
  protein stability index: 2.58
- MUTATION LIST: "Q8S"
  protein stability index: 2.28
- MUTATION LIST: "T20H"
  protein stability index: 2.37
- MUTATION LIST: "D12Y"
  protein stability index: 3.2
- MUTATION LIST: "H13P"
  protein stability index: 2.23
- MUTATION LIST: "P23N"
  protein stability index: 1.81
- MUTATION LIST: "L16N"
  protein stability index: 3.54
- MUTATION LIST: "T20P"
  protein stability index: 2.7
- MUTATION LIST: "Q2P"
  protein stability index: 2.83
- MUTATION LIST: "H13Y"
  protein stability index: 2.15
- MUTATION LIST: "H13T"
  protein stability index: 2.94
- MUTATION LIST: "Q8R"
  protein stability index: 1.78
- MUTATION LIST: "Q2G"
  protein stability index: 2.07
- MUTATION LIST: "D21S"
  protein stability index: 1.6
- MUTATION LIST: "V22C"
  protein stability index: 2.06
- MUTATION LIST: "D21T"
  protein stability index: 2.88
- MUTATION LIST: "S1E"
  protein stability index: 3.87
- MUTATION LIST: "V3A"
  protein stability index: 3.18
- MUTATION LIST: "P18H"
  protein stability index: 2.38
- MUTATION LIST: "D21A"
  protein stability index: 2.56
- MUTATION LIST: "P23E"
  protein stability index: 2.9
- MUTATION LIST: "L17V"
  protein stability index: 2.71
- MUTATION LIST: "Q14P"
  protein stability index: 2.74
